- Tested on: Staphylococcus aureus
- Method Description: Antibacterial activity against Staphylococcus aureus NCDC 110 by single disk method
- Format: functional
Quantity: MIC (µg/mL)
Your answer is read as µg/mL, so omit the unit and give the number.

Look up and state reported MIC for CCn1cc(C(=O)O)c(=O)c2cc(F)c(N3CCN(CC(=O)Nc4nc5ccc(C)cc5s4)CC3)cc21
25

Look up and state reported MIC for CCn1cc(C(=O)O)c(=O)c2cc(F)c(N3CCN(CC(=O)Nc4nc5ccc([N+](=O)[O-])cc5s4)CC3)cc21
105

Look up and state reported MIC for CCn1cc(C(=O)O)c(=O)c2cc(F)c(N3CCN(CC(=O)Nc4nc5c(Cl)ccc(Cl)c5s4)CC3)cc21
40

Look up and state reported MIC for COc1c(N2CCN(CC(=O)Nc3nc4ccc(Cl)c(Cl)c4s3)C(C)C2)c(F)cc2c(=O)c(C(=O)O)cn(C3CC3)c12 (centres undefined)
10
